Origin of values: the supplement of paper PMC12076712

Target: UniProt O75582
Sequence (O75582 whole entry, looked up): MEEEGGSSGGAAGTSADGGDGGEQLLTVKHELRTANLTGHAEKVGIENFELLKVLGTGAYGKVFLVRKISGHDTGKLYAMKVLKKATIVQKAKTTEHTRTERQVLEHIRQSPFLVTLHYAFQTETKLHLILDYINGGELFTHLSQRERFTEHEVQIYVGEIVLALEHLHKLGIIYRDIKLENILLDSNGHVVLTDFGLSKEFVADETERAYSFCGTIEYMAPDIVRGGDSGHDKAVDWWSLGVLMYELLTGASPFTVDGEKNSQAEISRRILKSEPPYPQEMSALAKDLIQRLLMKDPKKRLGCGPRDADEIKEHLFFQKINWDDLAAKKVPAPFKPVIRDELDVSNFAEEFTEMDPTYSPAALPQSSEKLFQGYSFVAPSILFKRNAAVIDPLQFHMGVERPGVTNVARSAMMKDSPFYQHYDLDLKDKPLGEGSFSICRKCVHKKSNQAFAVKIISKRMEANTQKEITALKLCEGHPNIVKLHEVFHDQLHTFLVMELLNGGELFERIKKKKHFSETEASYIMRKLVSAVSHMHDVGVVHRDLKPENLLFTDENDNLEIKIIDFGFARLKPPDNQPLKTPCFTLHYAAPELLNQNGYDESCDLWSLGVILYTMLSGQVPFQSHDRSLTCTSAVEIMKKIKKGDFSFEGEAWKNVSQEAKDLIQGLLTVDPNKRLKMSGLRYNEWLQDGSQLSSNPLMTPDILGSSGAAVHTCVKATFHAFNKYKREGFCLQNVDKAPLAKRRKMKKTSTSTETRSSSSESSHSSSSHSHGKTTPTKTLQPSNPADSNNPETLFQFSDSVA
Assay: pIC50, kinobeads binding competition
Conditions: cell material: Lysate mix
measurement-name: pIC50
Please give the numeric answer without any surrounding text.

Illustrative cases are given below, each with its answer.
smiles-representation | assayed-system | pIC50
CCNC(=O)c1cc(Nc2cc(C3CC3)[nH]n2)nc(N2CCN(Cc3ccc(S(=O)(=O)F)cc3)CC2)n1 | UniProt O75582 | 5.35
C#CCNC(=O)c1cc(Nc2cc(C3CC3)[nH]n2)nc(N2CCN(Cc3ccc(S(=O)(=O)F)cc3)CC2)n1 | UniProt O75582 | 5.6
CCNC(=O)c1cc(Nc2cc(C)[nH]n2)nc(N2CCN(Cc3ccc(S(=O)(=O)F)cc3)CC2)n1 | UniProt O75582 | 4.83

Here is another compound to look at.
Qu. Given the entry `C#CCNC(=O)c1cc(Nc2cc(C)[nH]n2)nc(N2CCN(Cc3ccc(S(=O)(=O)F)cc3)CC2)n1` , what pIC50 was observed with UniProt O75582?
Ans. 5.11

###

Target: SRC (UniProt P12931)
Sequence (P12931 whole entry, looked up): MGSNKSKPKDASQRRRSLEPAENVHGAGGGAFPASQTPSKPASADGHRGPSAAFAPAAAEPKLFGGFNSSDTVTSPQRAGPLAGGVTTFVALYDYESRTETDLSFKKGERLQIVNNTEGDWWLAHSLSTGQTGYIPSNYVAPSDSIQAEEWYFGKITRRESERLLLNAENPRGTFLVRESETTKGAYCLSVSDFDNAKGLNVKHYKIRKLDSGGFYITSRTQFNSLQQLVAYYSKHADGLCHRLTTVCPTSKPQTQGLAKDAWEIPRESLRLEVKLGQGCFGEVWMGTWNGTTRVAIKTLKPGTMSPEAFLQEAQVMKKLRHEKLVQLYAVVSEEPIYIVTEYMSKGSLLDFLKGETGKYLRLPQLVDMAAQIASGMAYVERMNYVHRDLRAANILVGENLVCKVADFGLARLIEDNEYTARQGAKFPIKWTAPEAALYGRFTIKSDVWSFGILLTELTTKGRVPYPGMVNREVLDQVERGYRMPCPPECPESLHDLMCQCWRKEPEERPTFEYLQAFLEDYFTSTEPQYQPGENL
Assay: pIC50, kinobeads binding competition
Settings: cell material: Lysate mix
measurement-name: pIC50
Please give the numeric answer without any surrounding text.

Illustrative cases are given below, each with its answer.
compound | measurement-name | endpoint-value
CCNC(=O)c1cc(Nc2cc(C3CC3)[nH]n2)nc(N2CCN(Cc3ccc(S(=O)(=O)F)cc3)CC2)n1 | pIC50 | 6.14
Cc1cc(Nc2cc(C(=O)NCCNC(=O)OC3CC/C=C/CCC3)nc(N3CCN(Cc4ccc(S(=O)(=O)F)cc4)CC3)n2)n[nH]1 (stereo not given) | pIC50 | 4.7
C#CCNC(=O)c1cc(Nc2cc(C3CC3)[nH]n2)nc(N2CCN(Cc3ccc(S(=O)(=O)F)cc3)CC2)n1 | pIC50 | 6.24
CCNC(=O)c1cc(Nc2cc(C)[nH]n2)nc(N2CCN(Cc3ccc(S(=O)(=O)F)cc3)CC2)n1 | pIC50 | 6.61

Here is another compound to look at.
Qu. So what's the measured pIC50 for this one? `C#CCNC(=O)c1cc(Nc2cc(C)[nH]n2)nc(N2CCN(Cc3ccc(S(=O)(=O)F)cc3)CC2)n1`
Ans. 5.89

###

Target: FGFR2 (UniProt P21802)
Sequence (P21802 whole entry, looked up): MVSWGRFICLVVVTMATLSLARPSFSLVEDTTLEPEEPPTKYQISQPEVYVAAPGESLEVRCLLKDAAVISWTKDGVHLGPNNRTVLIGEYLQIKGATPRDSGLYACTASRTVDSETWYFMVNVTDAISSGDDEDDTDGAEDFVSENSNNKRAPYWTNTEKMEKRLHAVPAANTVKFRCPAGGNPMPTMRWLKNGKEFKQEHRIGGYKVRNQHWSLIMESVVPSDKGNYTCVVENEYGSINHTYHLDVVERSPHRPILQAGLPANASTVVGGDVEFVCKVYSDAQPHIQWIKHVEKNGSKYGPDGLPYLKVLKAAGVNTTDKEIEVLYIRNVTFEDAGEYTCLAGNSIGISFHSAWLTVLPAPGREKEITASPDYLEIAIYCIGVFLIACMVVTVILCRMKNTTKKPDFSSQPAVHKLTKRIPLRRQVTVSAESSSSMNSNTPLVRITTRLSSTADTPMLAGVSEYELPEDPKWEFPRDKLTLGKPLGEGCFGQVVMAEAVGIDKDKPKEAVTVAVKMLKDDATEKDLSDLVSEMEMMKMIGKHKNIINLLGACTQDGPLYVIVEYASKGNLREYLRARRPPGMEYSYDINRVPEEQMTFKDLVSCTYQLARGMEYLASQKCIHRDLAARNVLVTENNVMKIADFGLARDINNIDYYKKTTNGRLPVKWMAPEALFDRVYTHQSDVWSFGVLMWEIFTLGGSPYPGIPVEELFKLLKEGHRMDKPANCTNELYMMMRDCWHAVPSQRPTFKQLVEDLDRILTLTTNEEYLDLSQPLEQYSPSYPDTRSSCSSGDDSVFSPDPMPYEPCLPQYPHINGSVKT
Assay: pIC50, kinobeads binding competition
Conditions: cell material: Lysate mix
Below, each entry is listed with its recorded pIC50.

Illustrative cases are given below, each with its answer.
compound | measurement-name | endpoint-value
CCNC(=O)c1cc(Nc2cc(C)[nH]n2)nc(N2CCN(Cc3ccc(S(=O)(=O)F)cc3)CC2)n1 | pIC50 | < 4.52
C#CCNC(=O)c1cc(Nc2cc(C)[nH]n2)nc(N2CCN(Cc3ccc(S(=O)(=O)F)cc3)CC2)n1 | pIC50 | < 4.52

Qu. So what's the measured pIC50 for this one? `C#CCNC(=O)c1cc(Nc2cc(C3CC3)[nH]n2)nc(N2CCN(Cc3ccc(S(=O)(=O)F)cc3)CC2)n1`
Ans. 4.94

Qu. So what's the measured pIC50 for this one? O=C(NCCNC(=O)c1cc(Nc2cc(C3CC3)[nH]n2)nc(N2CCN(Cc3ccc(S(=O)(=O)F)cc3)CC2)n1)OC1CC/C=C/CCC1 (stereo unspecified)
Ans. < 4.52

Qu. So what's the measured pIC50 for this one? `CCNC(=O)c1cc(Nc2cc(C3CC3)[nH]n2)nc(N2CCN(Cc3ccc(S(=O)(=O)F)cc3)CC2)n1`
Ans. 5.24

Qu. So what's the measured pIC50 for this one? Cc1cc(Nc2cc(C(=O)NCCNC(=O)OC3CC/C=C/CCC3)nc(N3CCN(Cc4ccc(S(=O)(=O)F)cc4)CC3)n2)n[nH]1 (stereo unspecified)
Ans. < 4.52

###

Target: BRSK2 (UniProt Q8IWQ3)
Sequence (Q8IWQ3 whole entry): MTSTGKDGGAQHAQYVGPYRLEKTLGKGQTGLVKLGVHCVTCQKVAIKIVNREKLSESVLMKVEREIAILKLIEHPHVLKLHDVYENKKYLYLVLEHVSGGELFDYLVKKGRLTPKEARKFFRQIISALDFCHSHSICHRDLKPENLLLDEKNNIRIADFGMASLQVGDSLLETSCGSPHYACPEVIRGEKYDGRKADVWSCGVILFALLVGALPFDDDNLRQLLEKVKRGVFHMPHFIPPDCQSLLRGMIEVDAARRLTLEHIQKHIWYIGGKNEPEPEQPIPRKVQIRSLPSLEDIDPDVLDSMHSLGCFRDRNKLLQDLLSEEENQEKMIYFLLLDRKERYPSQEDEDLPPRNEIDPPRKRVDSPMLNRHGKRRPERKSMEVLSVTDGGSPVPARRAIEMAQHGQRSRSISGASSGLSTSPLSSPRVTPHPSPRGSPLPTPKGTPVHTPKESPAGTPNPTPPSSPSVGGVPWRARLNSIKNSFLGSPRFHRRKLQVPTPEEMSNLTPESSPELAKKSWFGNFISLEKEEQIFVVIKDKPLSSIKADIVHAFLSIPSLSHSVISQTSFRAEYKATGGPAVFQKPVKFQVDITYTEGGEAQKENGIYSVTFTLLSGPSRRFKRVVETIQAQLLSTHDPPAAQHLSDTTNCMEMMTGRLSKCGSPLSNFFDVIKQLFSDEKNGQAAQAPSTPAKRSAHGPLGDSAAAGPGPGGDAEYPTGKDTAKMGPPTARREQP
Test: pIC50, kinobeads binding competition
Conditions: cell material: Lysate mix
Below, each entry is listed with its recorded pIC50.

Illustrative cases are given below, each with its answer.
compound | pIC50
CCNC(=O)c1cc(Nc2cc(C)[nH]n2)nc(N2CCN(Cc3ccc(S(=O)(=O)F)cc3)CC2)n1 | < 4.52
Cc1cc(Nc2cc(C(=O)NCCNC(=O)OC3CC/C=C/CCC3)nc(N3CCN(Cc4ccc(S(=O)(=O)F)cc4)CC3)n2)n[nH]1 (stereo unspecified) | < 4.52
C#CCNC(=O)c1cc(Nc2cc(C3CC3)[nH]n2)nc(N2CCN(Cc3ccc(S(=O)(=O)F)cc3)CC2)n1 | 4.84
CCNC(=O)c1cc(Nc2cc(C3CC3)[nH]n2)nc(N2CCN(Cc3ccc(S(=O)(=O)F)cc3)CC2)n1 | < 4.52
C#CCNC(=O)c1cc(Nc2cc(C)[nH]n2)nc(N2CCN(Cc3ccc(S(=O)(=O)F)cc3)CC2)n1 | < 4.52

Here is another compound to look at.
Qu. So what's the measured pIC50 for this one? O=C(NCCNC(=O)c1cc(Nc2cc(C3CC3)[nH]n2)nc(N2CCN(Cc3ccc(S(=O)(=O)F)cc3)CC2)n1)OC1CC/C=C/CCC1 (stereo unspecified)
Ans. < 4.52

###

Biological target: IRAK1 (UniProt P51617)
Sequence (P51617 whole entry, looked up): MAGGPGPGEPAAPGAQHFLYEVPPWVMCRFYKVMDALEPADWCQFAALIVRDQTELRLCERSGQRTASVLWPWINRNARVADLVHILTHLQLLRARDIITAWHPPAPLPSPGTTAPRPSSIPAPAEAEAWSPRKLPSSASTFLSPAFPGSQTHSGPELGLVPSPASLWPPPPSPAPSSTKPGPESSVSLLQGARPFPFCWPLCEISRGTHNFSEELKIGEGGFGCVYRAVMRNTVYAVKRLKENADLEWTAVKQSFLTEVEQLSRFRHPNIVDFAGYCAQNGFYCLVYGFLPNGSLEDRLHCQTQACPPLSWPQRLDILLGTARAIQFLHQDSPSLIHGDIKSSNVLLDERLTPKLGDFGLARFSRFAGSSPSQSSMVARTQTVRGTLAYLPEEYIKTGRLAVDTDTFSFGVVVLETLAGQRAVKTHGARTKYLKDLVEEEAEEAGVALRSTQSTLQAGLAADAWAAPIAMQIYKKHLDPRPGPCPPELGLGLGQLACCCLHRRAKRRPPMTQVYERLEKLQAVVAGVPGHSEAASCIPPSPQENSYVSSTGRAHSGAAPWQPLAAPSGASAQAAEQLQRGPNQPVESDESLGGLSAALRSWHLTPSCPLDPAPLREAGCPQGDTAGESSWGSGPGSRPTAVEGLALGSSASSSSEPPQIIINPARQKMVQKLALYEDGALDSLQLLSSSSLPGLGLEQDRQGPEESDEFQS
Test: pIC50, kinobeads binding competition
Details: cell material: Lysate mix
Below, each entry is listed with its recorded pIC50.
Please give the numeric answer without any surrounding text.

Qu. So what's the measured pIC50 for this one? `C#CCNC(=O)c1cc(Nc2cc(C)[nH]n2)nc(N2CCN(Cc3ccc(S(=O)(=O)F)cc3)CC2)n1`
Ans. 5.11

Qu. So what's the measured pIC50 for this one? `CCNC(=O)c1cc(Nc2cc(C)[nH]n2)nc(N2CCN(Cc3ccc(S(=O)(=O)F)cc3)CC2)n1`
Ans. 4.8

Qu. So what's the measured pIC50 for this one? `C#CCNC(=O)c1cc(Nc2cc(C3CC3)[nH]n2)nc(N2CCN(Cc3ccc(S(=O)(=O)F)cc3)CC2)n1`
Ans. 5.96

Qu. So what's the measured pIC50 for this one? `CCNC(=O)c1cc(Nc2cc(C3CC3)[nH]n2)nc(N2CCN(Cc3ccc(S(=O)(=O)F)cc3)CC2)n1`
Ans. 5.72

###

Below, each entry is listed with its recorded pIC50.
Target: UniProt Q9BQI3
Sequence (Q9BQI3 whole entry): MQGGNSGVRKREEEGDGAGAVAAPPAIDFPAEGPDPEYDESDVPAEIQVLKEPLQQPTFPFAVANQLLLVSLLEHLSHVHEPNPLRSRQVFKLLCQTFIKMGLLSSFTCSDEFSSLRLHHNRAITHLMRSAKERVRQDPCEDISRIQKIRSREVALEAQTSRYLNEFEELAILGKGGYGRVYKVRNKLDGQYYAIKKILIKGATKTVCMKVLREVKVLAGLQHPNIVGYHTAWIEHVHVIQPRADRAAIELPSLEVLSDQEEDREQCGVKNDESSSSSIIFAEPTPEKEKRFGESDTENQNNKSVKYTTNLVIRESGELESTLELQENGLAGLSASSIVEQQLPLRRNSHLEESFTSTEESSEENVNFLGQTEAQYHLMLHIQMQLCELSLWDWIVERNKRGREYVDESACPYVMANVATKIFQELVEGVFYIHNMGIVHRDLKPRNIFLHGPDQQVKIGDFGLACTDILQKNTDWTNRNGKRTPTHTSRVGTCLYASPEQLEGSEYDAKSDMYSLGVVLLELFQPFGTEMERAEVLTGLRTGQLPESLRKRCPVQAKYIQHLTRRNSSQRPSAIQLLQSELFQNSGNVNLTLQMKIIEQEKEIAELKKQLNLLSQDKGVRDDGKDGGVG
Test: pIC50, kinobeads binding competition
Conditions: cell material: Lysate mix

Illustrative cases are given below, each with its answer.
molecule | endpoint-value
C#CCNC(=O)c1cc(Nc2cc(C)[nH]n2)nc(N2CCN(Cc3ccc(S(=O)(=O)F)cc3)CC2)n1 | < 4.52
O=C(NCCNC(=O)c1cc(Nc2cc(C3CC3)[nH]n2)nc(N2CCN(Cc3ccc(S(=O)(=O)F)cc3)CC2)n1)OC1CC/C=C/CCC1 (stereo not given) | < 4.52
CCNC(=O)c1cc(Nc2cc(C)[nH]n2)nc(N2CCN(Cc3ccc(S(=O)(=O)F)cc3)CC2)n1 | < 4.52

Qu. So what's the measured pIC50 for this one? `CCNC(=O)c1cc(Nc2cc(C3CC3)[nH]n2)nc(N2CCN(Cc3ccc(S(=O)(=O)F)cc3)CC2)n1`
Ans. 5.06

Qu. So what's the measured pIC50 for this one? Cc1cc(Nc2cc(C(=O)NCCNC(=O)OC3CC/C=C/CCC3)nc(N3CCN(Cc4ccc(S(=O)(=O)F)cc4)CC3)n2)n[nH]1 (stereo not given)
Ans. < 4.52

###

Molecular target: EIF2AK4 (UniProt Q9P2K8)
Assay: pIC50, kinobeads binding competition
Details: cell material: Lysate mix
Below, each entry is listed with its recorded pIC50.
Please give the numeric answer without any surrounding text.

smiles-representation | pIC50
C#CCNC(=O)c1cc(Nc2cc(C)[nH]n2)nc(N2CCN(Cc3ccc(S(=O)(=O)F)cc3)CC2)n1 | 5.15

Qu. So what's the measured pIC50 for this one? `CCNC(=O)c1cc(Nc2cc(C3CC3)[nH]n2)nc(N2CCN(Cc3ccc(S(=O)(=O)F)cc3)CC2)n1`
Ans. 5.35

Qu. So what's the measured pIC50 for this one? `CCNC(=O)c1cc(Nc2cc(C)[nH]n2)nc(N2CCN(Cc3ccc(S(=O)(=O)F)cc3)CC2)n1`
Ans. 4.98

Qu. So what's the measured pIC50 for this one? `C#CCNC(=O)c1cc(Nc2cc(C3CC3)[nH]n2)nc(N2CCN(Cc3ccc(S(=O)(=O)F)cc3)CC2)n1`
Ans. 5.44

###

Target: CLK1 (UniProt P49759)
Sequence (P49759 whole entry, looked up): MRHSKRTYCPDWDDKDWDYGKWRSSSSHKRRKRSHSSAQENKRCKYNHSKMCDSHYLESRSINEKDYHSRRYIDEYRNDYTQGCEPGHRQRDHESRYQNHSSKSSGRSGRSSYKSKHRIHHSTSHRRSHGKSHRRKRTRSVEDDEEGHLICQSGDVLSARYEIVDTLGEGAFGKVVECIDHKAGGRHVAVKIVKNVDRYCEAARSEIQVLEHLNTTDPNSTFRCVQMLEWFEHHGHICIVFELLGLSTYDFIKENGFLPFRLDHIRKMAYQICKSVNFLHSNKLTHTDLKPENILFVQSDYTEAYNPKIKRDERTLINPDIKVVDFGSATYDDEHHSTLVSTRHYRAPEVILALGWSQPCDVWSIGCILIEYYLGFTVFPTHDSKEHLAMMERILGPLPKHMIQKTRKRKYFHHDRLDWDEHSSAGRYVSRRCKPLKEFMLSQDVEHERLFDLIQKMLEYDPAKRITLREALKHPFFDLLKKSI
Assay: pIC50, kinobeads binding competition
Conditions: cell material: Lysate mix
Below, each entry is listed with its recorded pIC50.

compound | endpoint-value
C#CCNC(=O)c1cc(Nc2cc(C)[nH]n2)nc(N2CCN(Cc3ccc(S(=O)(=O)F)cc3)CC2)n1 | < 4.52
C#CCNC(=O)c1cc(Nc2cc(C3CC3)[nH]n2)nc(N2CCN(Cc3ccc(S(=O)(=O)F)cc3)CC2)n1 | 5.66
CCNC(=O)c1cc(Nc2cc(C)[nH]n2)nc(N2CCN(Cc3ccc(S(=O)(=O)F)cc3)CC2)n1 | < 4.52
CCNC(=O)c1cc(Nc2cc(C3CC3)[nH]n2)nc(N2CCN(Cc3ccc(S(=O)(=O)F)cc3)CC2)n1 | 5.44
Cc1cc(Nc2cc(C(=O)NCCNC(=O)OC3CC/C=C/CCC3)nc(N3CCN(Cc4ccc(S(=O)(=O)F)cc4)CC3)n2)n[nH]1 (stereo unspecified) | < 4.52

Here is another compound to look at.
Qu. So what's the measured pIC50 for this one? O=C(NCCNC(=O)c1cc(Nc2cc(C3CC3)[nH]n2)nc(N2CCN(Cc3ccc(S(=O)(=O)F)cc3)CC2)n1)OC1CC/C=C/CCC1 (stereo unspecified)
Ans. < 4.52
